Target: T1, His-tagged human TIGIT (human, UniProt Q495A1 22-141)
T1 construct: SPR analyte; also called human TIGIT protein; not shown: His tag
T1 sequence: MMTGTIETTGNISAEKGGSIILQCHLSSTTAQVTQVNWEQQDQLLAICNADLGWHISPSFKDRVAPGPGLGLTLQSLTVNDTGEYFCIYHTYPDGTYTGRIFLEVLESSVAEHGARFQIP
Assay: SPR experiment 3, IgG from HEK293 supernatant captured
Measurement name: kon

The value of kon measured for the binder reshaped TIGIT-3 antibody 3VH3 + 3VL1.M3 (antibody, V domains shown, Full-length IgG, tested as HEK293 supernatant) VH: EVQLVESGGGLVQPGGSLRLSCAASGFTFSSYGMSWVRQAPGKGLELVATIKSDGGSTNLPDSVKGRFTISRDNSKNTLYLQMNSLRAEDTAVYYCVRGYFDYWGQGTTVTVSS VL: DIQMTQSPSSLSASVGDRVTITCKASQDVKTAVAWYQQKPGKVPKLLIYWASTRHSGVPSRFSGSGSGTDFTLTISSLQPEDVATYYCQQYYSTPYTFGGGTKVEIK turned out to be 190000 M⁻¹ s⁻¹
